assay: Solubility limit in water; type: physicochemical
Where a SMILES comes first, the peptide text is derived from it. [ ]: non-standard residue; d: D form. Hica(2S) = CC(C)C[C@H](O)C(=O)O
Parameter: solubility

(Q) Given the entry CC(=O)N[C@@H](CCC(N)=O)C(=O)N[C@@H](CCC(N)=O)C(=O)N[C@@H](CCCCN)C(=O)N[C@@H](Cc1ccccc1)C(=O)N[C@@H](CCC(N)=O)C(=O)O[C@@H](CC(C)C)C(=O)N[C@@H](CCC(N)=O)C(=O)N[C@@H](Cc1ccccc1)C(=O)N[C@@H](CCC(=O)O)C(=O)N[C@@H](CCC(N)=O)C(=O)N[C@@H](CCC(N)=O)C(N)=O [Depsi-L] (Ac-QQKFQ[Hica(2S)]QFEQQ-NH2; N-terminus assumed) , report its measured solubility.
(A) ≥ 30 mM
